ASSAY SYSTEM: Cannabinoid receptor 1 (Homo sapiens, UniProt P21554)
Sequence (P21554 whole entry): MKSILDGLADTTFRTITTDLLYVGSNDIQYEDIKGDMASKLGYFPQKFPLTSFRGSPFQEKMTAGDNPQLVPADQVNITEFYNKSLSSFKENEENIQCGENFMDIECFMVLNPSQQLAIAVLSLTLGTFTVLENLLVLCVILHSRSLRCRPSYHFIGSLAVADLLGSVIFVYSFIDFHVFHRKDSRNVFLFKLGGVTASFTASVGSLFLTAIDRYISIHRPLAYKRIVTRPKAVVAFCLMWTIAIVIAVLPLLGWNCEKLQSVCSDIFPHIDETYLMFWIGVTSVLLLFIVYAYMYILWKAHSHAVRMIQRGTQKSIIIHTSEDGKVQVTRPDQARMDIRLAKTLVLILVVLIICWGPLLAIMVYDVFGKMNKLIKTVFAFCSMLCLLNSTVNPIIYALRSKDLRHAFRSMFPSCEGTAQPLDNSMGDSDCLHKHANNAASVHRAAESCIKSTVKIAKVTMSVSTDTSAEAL
PROCEDURE TEXT: Displacement of [3H]CP-55940 from human recombinant CB1 receptor expressed in HEK293 cells after 90 mins
RECORDED ENDPOINT: EC50

> print(dat)
                                item.smiles  result.value
1  CN(CCCCCCCOc1ccc(-c2oc3ccccc3c2C(=O)c2c3ccccc3cc3ccccc23)cc1)Cc1ccccc1       > 10 µM
2  CN(CCCCCCCOc1ccc(-c2oc3ccccc3c2C(=O)c2ccc3ccccc3c2)cc1)Cc1ccccc1       > 10 µM
3  CCN(CC)Cc1ccc(C(=O)c2c(-c3ccc(OCCCCCCCN(C)Cc4ccccc4)cc3)oc3ccccc23)cc1       > 10 µM
4  CN(CCCCCCCOc1ccc(-c2oc3ccccc3c2C(=O)c2ccccc2)cc1)Cc1ccccc1       0.79 µM
5  CN(CCCCCCCOc1ccc(-c2oc3ccccc3c2C(=O)c2cccc3ccccc23)cc1)Cc1ccccc1       > 10 µM
6  CCN(CC)CCOc1ccc(C(=O)c2c(-c3ccc(OCCCCCCCN(C)Cc4ccccc4)cc3)oc3ccccc23)cc1       > 10 µM
7  CN(CCCCCCCOc1ccc(-c2cc3ccccc3o2)cc1)Cc1ccccc1       6.95 µM
8  CCN(CC)Cc1cccc(C(=O)c2c(-c3ccc(OCCCCCCCN(C)Cc4ccccc4)cc3)oc3ccccc23)c1       > 10 µM

Return reported EC50 values for all items listed beneath this line.
1. CN(CCCCCCCOc1ccc(-c2oc3ccccc3c2C(=O)c2ccc(OCCN3CCOCC3)cc2)cc1)Cc1ccccc1
2. CCN(CC)CCOc1cccc(C(=O)c2c(-c3ccc(OCCCCCCCN(C)Cc4ccccc4)cc3)oc3ccccc23)c1
3. CN(CCCCCCCOc1ccc(-c2oc3ccccc3c2C(=O)c2ccc(-c3ccccc3)cc2)cc1)Cc1ccccc1

Given back:
["1.37 µM", "6.38 µM", "7.74 µM"]
